Please respond with reported viability for every item in the list.
Assay: HUVEC growth inhibition – cell-based, human, primary screen (AID 575);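 further: 100% = median of untreated cell wells with 0.1% DMSO on each plate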
Conditions: HUVEC proliferation, CellTiter-Glo luminescence, 72 h; at 10 µM; active compounds read low
Numbers only here, please. The scale is %.

QUERY: Data request, read-out viability, for CC(=O)c1c(C)[nH]c(C(=O)NCc2cccs2)c1C
RESULT: 93.8

QUERY: Data request, read-out viability, for CNCCC=C1c2ccccc2CCc2ccccc21
RESULT: 71.6

QUERY: Data request, read-out viability, for c1coc(-c2nnc(-c3cccs3)o2)c1
RESULT: 110

QUERY: Data request, read-out viability, for COC(=O)c1ccc(CSc2nc3ccccc3c(=O)n2Cc2ccco2)o1
RESULT: 81.2

QUERY: Data request, read-out viability, for CCCc1cc(C(=O)Nc2ccccc2C(=O)OC)no1
RESULT: 64.7

QUERY: Data request, read-out viability, for COc1cc(OC)cc(-c2nc3nc(C)c(CCC(=O)O)c(C)n3n2)c1
RESULT: 80.1

QUERY: Data request, read-out viability, for O=C(Nc1cccc2c1CCCC2)C1CCN(c2nnnn2-c2ccccc2)CC1
RESULT: 97.7

QUERY: Data request, read-out viability, for Cc1cc(N2CCN(C)CC2)nc(N2CCOCC2)n1
RESULT: 97.7

QUERY: Data request, read-out viability, for CCOC(=O)Cn1c(CN2CCOCC2)nc2c1c(=O)[nH]c(=O)n2C
RESULT: 97.5

QUERY: Data request, read-out viability, for CS(=O)(=O)N(CC(=O)N1CCN(c2cccc(Cl)c2)CC1)C1CCCCC1
RESULT: 80.6

QUERY: Data request, read-out viability, for CC1Cc2ccccc2N1C(=O)c1cnsn1 (stereo not drawn)
RESULT: 86.3

QUERY: Data request, read-out viability, for Cc1csc(NC(=O)CSc2nnc(Cc3cccn3C)n2-c2ccc(F)cc2)n1
RESULT: 84.8

QUERY: Data request, read-out viability, for Cc1[nH]nc(N=CC2=C(O)CC(C)(C)CC2=O)c1-c1ccccc1
RESULT: 100

* * *

Please respond with reported inhibition for every item in the list.
Assay: 384-well plate pilot, post-Golgi transport modulator project, inhibition of yeast transport mutant growth (AID 636)
Details: absorbance 615 nm, about 18 h, active compounds read high
Numbers only here, please. The scale is %.

QUERY: Data request, read-out inhibition, for Cc1cc(Br)c(S(=O)(=O)n2nnc3ccccc32)cc1C
RESULT: -8.22

QUERY: Data request, read-out inhibition, for CCOC(=O)CSc1nnc2n1C(C)(C)Cc1ccccc1-2
RESULT: 4.32

QUERY: Data request, read-out inhibition, for O=P(O)(O)C(O)C(F)(F)C(F)(F)C(F)(F)C(F)F (stereo not drawn)
RESULT: -7.76

* * *

Please respond with reported viability for every item in the list.
Assay: HUVEC growth inhibition – cell-based, human, primary screen (AID 575);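 further: 100% = median of untreated cell wells with 0.1% DMSO on each plate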
Conditions: HUVEC proliferation, CellTiter-Glo luminescence, 72 h; at 10 µM; active compounds read low
Active and inactive are the calls of the source.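 The calls were made as follows: active = viability at or below 30% in both replicate assays; inconclusive = viability at or below 30% in just one of the two assays; inactive = the rest.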

QUERY: Data request, read-out viability, for CCOc1ccccc1C1N(c2ccc(F)cc2)C(=O)C2CCCN21 (stereo unspecified)
RESULT: 111% (inactive)

QUERY: Data request, read-out viability, for CC(C)Oc1cc2oc(=O)c3c(c2cc1Cl)CCC3
RESULT: 99% (inactive)

QUERY: Data request, read-out viability, for CC(NC(=O)NC12CC3CC(CC(C3)C1)C2)C1CCCO1 (stereo unspecified)
RESULT: 103% (inactive)

QUERY: Data request, read-out viability, for Cc1ccc2c(c1)c1c3n2CC(=C2C(=O)OC(C)(C)OC2=O)NC3CCC1 (stereo unspecified)
RESULT: 73.1% (inactive)

QUERY: Data request, read-out viability, for Cc1ccccc1NC(=O)C1CCC(C)(C(=O)O)C1(C)C (stereo unspecified)
RESULT: 92.7% (inactive)

QUERY: Data request, read-out viability, for COc1ccc(-c2nnc(SCc3nnc(-c4ccc(Cl)cc4)o3)n2-c2ccccc2)cc1
RESULT: 55.6% (inactive)

QUERY: Data request, read-out viability, for Cc1nnc2ccc(N3CCC4(CC3)OCCO4)nn12
RESULT: 100% (inactive)

QUERY: Data request, read-out viability, for CCOc1ccc(-c2c(C#N)c(N)nc3c2c(=O)n(C)c(=O)n3C)cc1OC
RESULT: 86% (inactive)

QUERY: Data request, read-out viability, for O=C(c1cccc(C(=O)N2CCN(c3ccc(F)cc3)CC2)c1)N1CCN(c2ccc(F)cc2)CC1
RESULT: 74% (inactive)

QUERY: Data request, read-out viability, for COC(=O)Oc1c(Br)c(=O)oc2ccccc12
RESULT: 90.8% (inactive)

QUERY: Data request, read-out viability, for Cn1c(=O)n(Cc2ccccc2)c(=O)c2c1nc(NCC1CCCO1)n2Cc1ccccc1 (stereo unspecified)
RESULT: 74.4% (inactive)
